meta.source: paper PMC3218832

Target: RELB subunit;p52 subunit (Homo sapiens;Homo sapiens, UniProt Q01201;Q00653 120-401;4-332)
Sequence 1: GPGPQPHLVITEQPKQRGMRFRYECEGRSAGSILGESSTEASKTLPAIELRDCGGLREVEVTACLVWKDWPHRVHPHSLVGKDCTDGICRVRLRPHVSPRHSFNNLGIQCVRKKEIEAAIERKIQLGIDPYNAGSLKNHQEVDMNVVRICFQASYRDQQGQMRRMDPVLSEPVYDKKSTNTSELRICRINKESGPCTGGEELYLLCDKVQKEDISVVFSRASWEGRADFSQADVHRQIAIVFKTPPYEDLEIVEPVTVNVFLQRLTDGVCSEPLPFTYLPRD
Sequence 2: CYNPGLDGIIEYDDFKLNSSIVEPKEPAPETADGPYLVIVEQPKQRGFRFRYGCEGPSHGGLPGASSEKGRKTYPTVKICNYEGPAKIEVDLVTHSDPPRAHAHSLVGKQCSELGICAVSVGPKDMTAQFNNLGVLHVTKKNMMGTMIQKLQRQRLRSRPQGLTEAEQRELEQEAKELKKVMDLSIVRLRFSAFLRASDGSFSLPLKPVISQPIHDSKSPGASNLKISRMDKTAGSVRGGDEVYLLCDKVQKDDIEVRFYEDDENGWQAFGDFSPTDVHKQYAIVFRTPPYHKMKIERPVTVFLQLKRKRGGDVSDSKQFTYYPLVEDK
Experiment: protein binding microarray; high values mean tight binding
Details: dsDNA, one strand shown
binding signal: recorded values
measured-parameter: binding signal

biopolymer_sequence=CGGTGCTTCCC target_or_test_system="RELB subunit;p52 subunit (Homo sapiens;Homo sapiens, UniProt Q01201;Q00653 120-401;4-332)" value_observed="2.06 z-score"
biopolymer_sequence=CGGTTCCCCCC target_or_test_system="RELB subunit;p52 subunit (Homo sapiens;Homo sapiens, UniProt Q01201;Q00653 120-401;4-332)" value_observed="2.23 z-score"
biopolymer_sequence=CGGTAGCCCCT target_or_test_system="RELB subunit;p52 subunit (Homo sapiens;Homo sapiens, UniProt Q01201;Q00653 120-401;4-332)" value_observed="0.728 z-score"
biopolymer_sequence=GAAAATATCCT target_or_test_system="RELB subunit;p52 subunit (Homo sapiens;Homo sapiens, UniProt Q01201;Q00653 120-401;4-332)" value_observed="-0.797 z-score"
biopolymer_sequence=GAGTATATCCT target_or_test_system="RELB subunit;p52 subunit (Homo sapiens;Homo sapiens, UniProt Q01201;Q00653 120-401;4-332)" value_observed="-0.866 z-score"
biopolymer_sequence=AAGTTAGTCCT target_or_test_system="RELB subunit;p52 subunit (Homo sapiens;Homo sapiens, UniProt Q01201;Q00653 120-401;4-332)" value_observed="-0.752 z-score"
biopolymer_sequence=AAGTAGTCCCC target_or_test_system="RELB subunit;p52 subunit (Homo sapiens;Homo sapiens, UniProt Q01201;Q00653 120-401;4-332)" value_observed="1.04 z-score"
biopolymer_sequence=AAAGGACTCCT target_or_test_system="RELB subunit;p52 subunit (Homo sapiens;Homo sapiens, UniProt Q01201;Q00653 120-401;4-332)" value_observed="-0.964 z-score"
biopolymer_sequence=CAAGATCTCCT target_or_test_system="RELB subunit;p52 subunit (Homo sapiens;Homo sapiens, UniProt Q01201;Q00653 120-401;4-332)" value_observed="-1.06 z-score"
biopolymer_sequence=CAGATGACCCC target_or_test_system="RELB subunit;p52 subunit (Homo sapiens;Homo sapiens, UniProt Q01201;Q00653 120-401;4-332)" value_observed="-0.302 z-score"
biopolymer_sequence=GAGATTTTCCT target_or_test_system="RELB subunit;p52 subunit (Homo sapiens;Homo sapiens, UniProt Q01201;Q00653 120-401;4-332)" value_observed="-0.507 z-score"
biopolymer_sequence=CAGATCGTCCT target_or_test_system="RELB subunit;p52 subunit (Homo sapiens;Homo sapiens, UniProt Q01201;Q00653 120-401;4-332)" value_observed="-0.777 z-score"
biopolymer_sequence=GGGTGTTCCCC target_or_test_system="RELB subunit;p52 subunit (Homo sapiens;Homo sapiens, UniProt Q01201;Q00653 120-401;4-332)" value_observed="2.06 z-score"
biopolymer_sequence=GGGGGAACCCC target_or_test_system="RELB subunit;p52 subunit (Homo sapiens;Homo sapiens, UniProt Q01201;Q00653 120-401;4-332)" value_observed="2.86 z-score"
biopolymer_sequence=CGAAGTGTCCT target_or_test_system="RELB subunit;p52 subunit (Homo sapiens;Homo sapiens, UniProt Q01201;Q00653 120-401;4-332)" value_observed="-0.796 z-score"
biopolymer_sequence=GAGATTGCCCC target_or_test_system="RELB subunit;p52 subunit (Homo sapiens;Homo sapiens, UniProt Q01201;Q00653 120-401;4-332)" value_observed="0.366 z-score"
biopolymer_sequence=AAAATAACCCC target_or_test_system="RELB subunit;p52 subunit (Homo sapiens;Homo sapiens, UniProt Q01201;Q00653 120-401;4-332)" value_observed="1.14 z-score"
biopolymer_sequence=CAGAGCTCCCC target_or_test_system="RELB subunit;p52 subunit (Homo sapiens;Homo sapiens, UniProt Q01201;Q00653 120-401;4-332)" value_observed="-0.0377 z-score"
biopolymer_sequence=GAGTTCTCCCC target_or_test_system="RELB subunit;p52 subunit (Homo sapiens;Homo sapiens, UniProt Q01201;Q00653 120-401;4-332)" value_observed="1.07 z-score"
biopolymer_sequence=CAATGTTCCCT target_or_test_system="RELB subunit;p52 subunit (Homo sapiens;Homo sapiens, UniProt Q01201;Q00653 120-401;4-332)" value_observed="0.0791 z-score"
